test: The drug is tested on Bacteroides pectinophilus strain: ATCC43243 for biotransformation. The drug concentrations were measured before and after a 12-h incubation by liquid-chromatography-coupled mass spectrometry (LC–MS); conditions: 2 µM
MEASURED_PARAMETER: Bacterial Biotransformation

MOLECULE	OBS_VALUE
CCN(CC)CCNC(=O)c1cc(Cl)c(N)cc1OC [METOCLOPRAMIDE]	Compound NOT metabolized
O=c1[nH]c2ccccc2n1CCCN1CCC(n2c(=O)[nH]c3cc(Cl)ccc32)CC1	Compound NOT metabolized
CC#C[C@]1(O)CC[C@H]2[C@@H]3CCC4=CC(=O)CCC4=C3[C@@H](c3ccc(N(C)C)cc3)C[C@@]21C	Compound NOT metabolized

* * *

conditions: bacteroides thetaiotaomicron, 12 h, 2 µM
Description: The drug is tested on Bacteroides thetaiotaomicron strain: VPI-5482 for biotransformation. The drug concentrations were measured before and after a 12-h incubation by liquid-chromatography-coupled mass spectrometry (LC–MS)
MEASURED_PARAMETER: Bacterial Biotransformation

A selection of reference data follows.
MOLECULE	Bacterial Biotransformation
CCc1cccc2c3c([nH]c12)C(CC)(CC(=O)O)OCC3 (configuration not stated)	Compound metabolized
CCc1nc(N)nc(N)c1-c1ccc(Cl)cc1	Compound NOT metabolized
O=C1CN2Cc3c(ccc(Cl)c3Cl)N=C2N1 [ANAGRELIDE]	Compound NOT metabolized
O=C(NC(Cc1cc(=O)[nH]c2ccccc12)C(=O)O)c1ccc(Cl)cc1 (configuration not stated) [REBAMIPIDE]	Compound NOT metabolized
C#C[C@]1(OC(C)=O)CC[C@H]2[C@@H]3CCC4=CC(=O)CC[C@@H]4[C@H]3CC[C@@]21C [NORETHINDRONE ACETATE]	Compound metabolized

Lookup result for CN1CCC(=C2c3ccccc3CCc3cccnc32)CC1.O=C(O)/C=C\C(=O)O.O=C(O)/C=C\C(=O)O [AZATADINE MALEATE] ; measured Bacterial Biotransformation: Compound NOT metabolized

Lookup result for CCN(CC)C(=O)/C(C#N)=C/c1cc(O)c(O)c([N+](=O)[O-])c1 ; measured Bacterial Biotransformation: Compound metabolized

Lookup result for CCN(CC)CCOCCOC(=O)C1(c2ccccc2)CCCC1.O=C(O)CC(O)(CC(=O)O)C(=O)O [CARBETAPENTANE CITRATE] ; measured Bacterial Biotransformation: Compound metabolized

Lookup result for C[C@H]1O[C@@H](O[C@H]2[C@@H](O)C[C@H](O[C@H]3[C@@H](O)C[C@H](O[C@H]4CC[C@@]5(C)[C@H](CC[C@@H]6[C@@H]5C[C@@H](O)[C@]5(C)[C@@H](C7=CC(=O)OC7)CC[C@]65O)C4)O[C@@H]3C)O[C@@H]2C)C[C@H](O)[C@@H]1O ; measured Bacterial Biotransformation: Compound metabolized

Lookup result for O=C1NCC2(CCN(CCc3ccccc3)CC2)O1 [FENSPIRIDE] ; measured Bacterial Biotransformation: Compound metabolized

* * *

test: The drug is tested on Edwardsiella tarda strain: ATCC23685 for biotransformation. The drug concentrations were measured before and after a 12-h incubation by liquid-chromatography-coupled mass spectrometry (LC–MS); settings: 2 µM
MEASURED_PARAMETER: Bacterial Biotransformation

COMPOUND	OBS_VALUE
COc1ccc(CCN(C)CCCC(C#N)(c2ccc(OC)c(OC)c2)C(C)C)cc1OC (stereo unspecified)	Compound NOT metabolized
CC[C@H](C)C(=O)O[C@H]1CCC=C2C=C[C@H](C)[C@H](CC[C@@H]3C[C@@H](O)CC(=O)O3)[C@H]21 [MEVASTATIN]	Compound metabolized
CC(C)(Oc1ccc(CCNC(=O)c2ccc(Cl)cc2)cc1)C(=O)O [BEZAFIBRATE]	Compound metabolized
C=C[C@H]1CN2CC[C@H]1C[C@H]2[C@H](O)c1ccnc2ccc(OC)cc12.C=C[C@H]1CN2CC[C@H]1C[C@H]2[C@H](O)c1ccnc2ccc(OC)cc12.O.O.O=S(=O)(O)O [QUININE SULFATE]	Compound NOT metabolized
COc1ccc2cc([C@H](C)C(=O)O)ccc2c1 [NAPROXEN]	Compound NOT metabolized

Consider the additional compound presented here.
Lookup result for Cc1ccc(NC(=O)c2ccc(CN3CCN(C)CC3)cc2)cc1Nc1nccc(-c2cccnc2)n1 [IMATINIB] ; measured Bacterial Biotransformation: Compound NOT metabolized

* * *

test: The drug is tested on Bacteroides coprophilus strain: DSM18228 for biotransformation. The drug concentrations were measured before and after a 12-h incubation by liquid-chromatography-coupled mass spectrometry (LC–MS); conditions: 2 µM
MEASURED_PARAMETER: Bacterial Biotransformation

A selection of reference data follows.
MOLECULE	Bacterial Biotransformation
CCOc1ccc(NC(C)=O)cc1	Compound NOT metabolized
Cc1nc2n(c(=O)c1CCN1CCC(c3noc4cc(F)ccc34)CC1)CCCC2	Compound NOT metabolized
CCC(=O)NCC[C@@H]1CCc2ccc3c(c21)CCO3	Compound NOT metabolized
C[C@H]1O[C@@H](O[C@H]2[C@@H](O)C[C@H](O[C@H]3[C@@H](O)C[C@H](O[C@H]4CC[C@@]5(C)[C@H](CC[C@@H]6[C@@H]5C[C@@H](O)[C@]5(C)[C@@H](C7=CC(=O)OC7)CC[C@]65O)C4)O[C@@H]3C)O[C@@H]2C)C[C@H](O)[C@@H]1O	Compound metabolized
Cc1nc2n(c(=O)c1CCN1CCC(c3noc4cc(F)ccc34)CC1)CCCC2O (centres undefined)	Compound NOT metabolized

Lookup result for COc1cc2nc(N3CCN(C(=O)C4COc5ccccc5O4)CC3)nc(N)c2cc1OC.CS(=O)(=O)O (centres undefined) [DOXAZOSIN MESYLATE] ; measured Bacterial Biotransformation: Compound NOT metabolized

Lookup result for CN(C)CC(c1ccc(O)cc1)C1(O)CCCCC1.O=C(O)CCC(=O)O (centres undefined) [DESVENLAFAXINE SUCCINATE] ; measured Bacterial Biotransformation: Compound NOT metabolized

* * *

conditions: bacteroides thetaiotaomicron, 12 h, 2 µM
MEASURED_PARAMETER: Bacterial Biotransformation

A selection of reference data follows.
MOLECULE	Bacterial Biotransformation
CC(CN1c2ccccc2Sc2ccccc21)N(C)C (stereo unspecified)	Compound NOT metabolized
CN(C)C(=O)Oc1cc(OC(=O)N(C)C)cc(C(O)CNC(C)(C)C)c1 (stereo unspecified)	Compound NOT metabolized
CC(C)(Oc1ccc(CCNC(=O)c2ccc(Cl)cc2)cc1)C(=O)O [BEZAFIBRATE]	Compound metabolized
COc1ccc2[nH]c([S+]([O-])Cc3ncc(C)c(OC)c3C)nc2c1 (stereo unspecified)	Compound metabolized
O=C(Nc1ccccc1)OCC(CN1CCCCC1)OC(=O)Nc1ccccc1 (stereo unspecified)	Compound NOT metabolized

Consider the additional molecule presented here.
Lookup result for COc1ccc2c(c1OC)C(=O)O[C@@H]2[C@H]1c2c(cc3c(c2OC)OCO3)CCN1C ; measured Bacterial Biotransformation: Compound metabolized

* * *

assay: The drug is tested on Dorea formicigenerans strain: ATCC27755 for biotransformation. The drug concentrations were measured before and after a 12-h incubation by liquid-chromatography-coupled mass spectrometry (LC–MS); details: 2 µM
MEASURED_PARAMETER: Bacterial Biotransformation

A selection of reference data follows.
MOLECULE	Bacterial Biotransformation
CC(N)C12CC3CC(CC(C3)C1)C2 (centres undefined)	Compound NOT metabolized
CCN(CC)C(C)CN1c2ccccc2Sc2ccccc21 (centres undefined)	Compound NOT metabolized
CC(=O)OCC(=O)[C@@]1(OC(C)=O)[C@@H](C)C[C@H]2[C@@H]3C[C@H](F)C4=CC(=O)C=C[C@]4(C)[C@@]3(F)[C@@H](O)C[C@@]21C [DIFLORASONE DIACETATE]	Compound NOT metabolized
COc1ccccc1OCC(O)COC(N)=O (centres undefined)	Compound NOT metabolized
COc1cc(C(=O)NCc2ccc(OCCN(C)C)cc2)cc(OC)c1OC [TRIMETHOBENZAMIDE]	Compound NOT metabolized

Lookup result for CCC(COC(=O)c1cc(OC)c(OC)c(OC)c1)(c1ccccc1)N(C)C.O=C(O)/C=C\C(=O)O (centres undefined) ; measured Bacterial Biotransformation: Compound metabolized

Lookup result for COc1ccc2[nH]c([S+]([O-])Cc3ncc(C)c(OC)c3C)nc2n1 (centres undefined) ; measured Bacterial Biotransformation: Compound metabolized

Lookup result for CN1CCN(C2=Nc3cc(Cl)ccc3Nc3ccccc32)CC1 ; measured Bacterial Biotransformation: Compound NOT metabolized

Lookup result for O=C(O)c1cc(/N=N/c2ccc(S(=O)(=O)Nc3ccccn3)cc2)ccc1O ; measured Bacterial Biotransformation: Compound metabolized

Lookup result for COc1cc2nc(N3CCN(C(=O)C4CCCO4)CC3)nc(N)c2cc1OC (centres undefined) ; measured Bacterial Biotransformation: Compound NOT metabolized

Lookup result for CN(C(=O)CN(CCO)CC(=O)N(C)C(C)(C)Cc1ccccc1)C(C)(C)Cc1ccccc1 ; measured Bacterial Biotransformation: Compound NOT metabolized

Lookup result for O=C(Nc1ccccc1)OCC(CN1CCCCC1)OC(=O)Nc1ccccc1 (centres undefined) ; measured Bacterial Biotransformation: Compound NOT metabolized

Lookup result for CC(C)NCC(O)c1ccc(NS(C)(=O)=O)cc1 (centres undefined) ; measured Bacterial Biotransformation: Compound NOT metabolized
